B1: HDV Ribozyme (parent)
chain: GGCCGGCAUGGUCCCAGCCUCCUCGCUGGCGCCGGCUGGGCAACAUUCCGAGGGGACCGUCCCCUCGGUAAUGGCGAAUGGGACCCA

Variants of: B1
Assay: self-cleavage, relative activity (ratio to wild type); higher = more cleavage; co-transcriptional
What self-cleavage was measured for each of the following?

- residue sequence: "GGCCGGCAUGGUACCAGCCUCCUCGCUGGCGCCGGCUGGGCAACAUUCCGAGGGGACCGUCCCCUCGGUAAUGGCGAAUCGGACCCA [C13A G80C]"
  self-cleavage: 0.125
- residue sequence: "GGCCGGCAUGGUCCCAGCCUCCUCGCUGGCGCCGGCUGGGCGGCAUUCCGAGGGGACCGUCCCCUCGGUAAUGGCGAAUGGGACCCA [A42G A43G]"
  self-cleavage: 0
- residue sequence: "GGCCGGCAUGGUCCAAGCCUCCUCGCUGGCGCCGGCUGGGCAACAUUCCGAGGGGACCGUCCCCUCGGUAAUGGCGAUUGGGACCCA [C15A A78U]"
  self-cleavage: 0.0639
- residue sequence: "GGCCGGCAUGGUCCCAGCCUCCUCGCUGGCGCCGGCUCGGCAACAUUGCGAGGGGACCGUCCCCUCGGUAAUGGCGAAUGGGACCCA [G38C C48G]"
  self-cleavage: 0.133

For every listed record, write down its self-cleavage.
1. GGCCGGCAUGGUCCCAGCCUCCUCGCUGGCGCAGGCUGGGCAACAUUCCGAGGGGACCGUCCCAUCGGUAAUGGCGAAUGGGACCCA [C33A C64A]
2. GGCCGGCAUGGUCCCAGCCUCCUCGCUGGCGCCGGCUGGGCAACAUUCCGAGGGGACCGUCCCCUCUGUAAUGGCGGAUGGGACCCA [G67U A77G]
3. GGCCGGCAUGGUCCCAGCCUCCUCGCUGGCGCCGGCUGGGCAACAUUCCGAGGCGACCGUCCCCGCGGUAAUGGCGAAUGGGACCCA [G54C U65G]
4. GGCCGGCAUGGUCCCAGCCUCCUCGCUGGCGCCGGCCGGGCAACAUUCCGAGGGGACCGUCCCCUCGGUAAAGGCGAAUGGGACCCA [U37C U72A]
5. GGCCGGCCUGGUCCCAGCCUCCUCGCUGGCGCCGGCUGGGCAACAUUCCGAGGGGACGGUCCCCUCGGUAAUGGCGAAUGGGACCCA [A8C C58G]
6. GGCCGGAAUGGUCCCAGCCUCCUCGCUGGCGCCGGCUGGGCGACAUUCCGAGGGGACCGUCCCCUCGGUAAUGGCGAAUGGGACCCA [C7A A42G]

Given back:
[0.339, 0.489, 0.8, 0.356, 0.68, 0.0831]

Asked: Return reported self-cleavage; argument: GGCCGGCAUGGUCCCAGCCUCCUCGCCGGCGCCGGCUGGGCAACAUUCCGAGGGGACCGUCCCCUGGGUAAUGGCGAAUGGGACCCA [U27C C66G]
Given back: 0.692
